# protocolText: Multiple dosing study in dogs: systemic exposure (plasma) to fexinidazole and its metabolites
# Format: in vivo, dog
# reportedConditions: female, dog, plasma, po, 200 mg/kg/day, Female Dog, 200 mg/kg/day oral, D1, mean ± SD, n = 3
measurementLabel: Cmax (ng/mL)
Output spec: scalar in ng/mL, unitless text.

Provide one value: measured Cmax of CSc1ccc(OCc2ncc([N+](=O)[O-])n2C)cc1
84.1

----------
# protocolText: Multiple dosing study in dogs: systemic exposure (plasma) to fexinidazole and its metabolites
# Format: in vivo, dog
# reportedConditions: dog, plasma, oral, 50 mg/kg/day, 50 mg/kg/day oral, Day 1, 0.5 hours; read-out: Average plasma concentrations of fexinidazole
measurementLabel: concentration at 0.5 h (ng/mL)
Give the value, in units of ng/mL, as a plain number.

Fill in concentration at 0.5 h for record CSc1ccc(OCc2ncc([N+](=O)[O-])n2C)cc1
34.5

----------
# protocolText: Multiple dosing study in dogs: systemic exposure (plasma) to fexinidazole and its metabolites
# Assay type: in vivo, dog
# reportedConditions: female, dog, plasma, po, 800 mg/kg/day, Female Dog, 800 mg/kg/day oral, D28, mean ± SD, n = 5
measurementLabel: Tmax (h)
Express the result in h but write the number alone.

Give reported Tmax value for CSc1ccc(OCc2ncc([N+](=O)[O-])n2C)cc1 [Fexinidazole, fexinidazole]
1

----------
# protocolText: Multiple dosing study in dogs: systemic exposure (plasma) to fexinidazole and its metabolites
# Type: in vivo, dog
# reportedConditions: male, dog, plasma, po, 50 mg/kg/day, Male Dog, 50 mg/kg/day oral, D1, mean ± SD, n = 3; read-out: AUC0-t (last)
measurementLabel: AUC(0-t)

Tell me AUC(0-t) reported for CSc1ccc(OCc2ncc([N+](=O)[O-])n2C)cc1
140 ng·h/mL

----------
# protocolText: Multiple dosing study in dogs: systemic exposure (plasma) to fexinidazole and its metabolites
# Assay type: in vivo, dog
# reportedConditions: dog, plasma, oral, 200 mg/kg/day, 200 mg/kg/day oral, Day 14, 0 hours; read-out: Average plasma concentrations of fexinidazole
measurementLabel: concentration at 0 h (ng/mL)
Field: numeric (ng/mL). Do not append units.

Answer with reported concentration at 0 h of CSc1ccc(OCc2ncc([N+](=O)[O-])n2C)cc1
16.6

----------
# protocolText: Multiple dosing study in dogs: systemic exposure (plasma) to fexinidazole and its metabolites
# Format: in vivo, dog
# reportedConditions: male, dog, plasma, po, 800 mg/kg/day, Male Dog, 800 mg/kg/day oral, D1, mean ± SD, n = 5
measurementLabel: Tmax (h)
Entry rule: numbers only, all in h.

Give recorded Tmax. CSc1ccc(OCc2ncc([N+](=O)[O-])n2C)cc1 [Fexinidazole, fexinidazole]
1.1

----------
# protocolText: Multiple dosing study in dogs: systemic exposure (plasma) to fexinidazole and its metabolites
# Assay type: in vivo, dog
# reportedConditions: male, dog, plasma, po, 50 mg/kg/day, Male Dog, 50 mg/kg/day oral, D28, mean ± SD, n = 3
measurementLabel: Tmax (h)
Note: unit h is implicit; provide only the numeric part.

Fill in reported Tmax for this entry: CSc1ccc(OCc2ncc([N+](=O)[O-])n2C)cc1
1

----------
# protocolText: Multiple dosing study in dogs: systemic exposure (plasma) to fexinidazole and its metabolites
# Format: in vivo, dog
# reportedConditions: female, dog, plasma, po, 50 mg/kg/day, Female Dog, 50 mg/kg/day oral, D14, mean ± SD, n = 3
measurementLabel: Tmax (h)
Write it as a number; the unit h goes unstated.

Let me know recorded Tmax for CSc1ccc(OCc2ncc([N+](=O)[O-])n2C)cc1 [Fexinidazole, fexinidazole] , thanks.
1.67

----------
# protocolText: Multiple dosing study in dogs: systemic exposure (plasma) to fexinidazole and its metabolites
# Type: in vivo, dog
# reportedConditions: dog, plasma, oral, 50 mg/kg/day, 50 mg/kg/day oral, Day 1, 8 hours; read-out: Average plasma concentrations of fexinidazole
measurementLabel: concentration at 8 h

Kindly indicate its recorded concentration at 8 h. Item: CSc1ccc(OCc2ncc([N+](=O)[O-])n2C)cc1
< 5 ng/mL

----------
# protocolText: Multiple dosing study in dogs: systemic exposure (plasma) to fexinidazole and its metabolites
# Format: in vivo, dog
# reportedConditions: dog, plasma, oral, 200 mg/kg/day, 200 mg/kg/day oral, Day 1, 1 hour; read-out: Average plasma concentrations of fexinidazole
measurementLabel: concentration at 1 h (ng/mL)
Response body: numeric value in ng/mL, unit text excluded.

Hello, please tell me recorded concentration at 1 h for this one: CSc1ccc(OCc2ncc([N+](=O)[O-])n2C)cc1
61.3

----------
# protocolText: Multiple dosing study in dogs: systemic exposure (plasma) to fexinidazole and its metabolites
# Assay type: in vivo, dog
# reportedConditions: female, dog, plasma, po, 800 mg/kg/day, Female Dog, 800 mg/kg/day oral, D1, mean ± SD, n = 5
measurementLabel: Cmax (ng/mL)
Respond with the bare value in ng/mL.

State its Cmax for this compound: CSc1ccc(OCc2ncc([N+](=O)[O-])n2C)cc1 [Fexinidazole, fexinidazole]
184

----------
# protocolText: Multiple dosing study in dogs: systemic exposure (plasma) to fexinidazole and its metabolites
# Format: in vivo, dog
# reportedConditions: female, dog, plasma, po, 200 mg/kg/day, Female Dog, 200 mg/kg/day oral, D28, mean ± SD, n = 3
# Procedure: In an embodiment, the fexinidazole may be administered to the canine as an aqueous oral suspension, comprising 5% TWEEN 80 and 0.5% Methyl cellulose 400 cP (METHOCEL). Provided in this format, fexinidazole suspensions of 5, 20, and 80 mg fexinidazole/mL may be prepared such that 10 mL of each concentration contains 50, 200, and 800 mg fexinidazole, respectively. […]
measurementLabel: Tmax
Please provide the amount together with its unit, number first.

Given the compound CSc1ccc(OCc2ncc([N+](=O)[O-])n2C)cc1 , write its reported Tmax.
1 h

----------
# protocolText: Multiple dosing study in dogs: systemic exposure (plasma) to fexinidazole and its metabolites
# Assay type: in vivo, dog
# reportedConditions: dog, plasma, oral, 50 mg/kg/day, 50 mg/kg/day oral, Day 14, 0 hours; read-out: Average plasma concentrations of fexinidazole
measurementLabel: concentration at 0 h

Provide concentration at 0 h value for the following compound: CSc1ccc(OCc2ncc([N+](=O)[O-])n2C)cc1
< 5 ng/mL

----------
# protocolText: Multiple dosing study in dogs: systemic exposure (plasma) to fexinidazole and its metabolites
# Format: in vivo, dog
# reportedConditions: female, dog, plasma, po, 200 mg/kg/day, Female Dog, 200 mg/kg/day oral, D1, mean ± SD, n = 3; read-out: AUC0-t (last)
measurementLabel: AUC(0-t) (ng·h/mL)
State just the number; it will be interpreted in ng·h/mL.

Name the recorded AUC(0-t) of the molecule listed here: CSc1ccc(OCc2ncc([N+](=O)[O-])n2C)cc1
454

----------
# protocolText: Multiple dosing study in dogs: systemic exposure (plasma) to fexinidazole and its metabolites
# Assay type: in vivo, dog
# reportedConditions: dog, plasma, oral, 200 mg/kg/day, 200 mg/kg/day oral, Day 14, 0.5 hours; read-out: Average plasma concentrations of fexinidazole
measurementLabel: concentration at 0.5 h
Answer format: value, then unit.

Provide one value: measured concentration at 0.5 h of CSc1ccc(OCc2ncc([N+](=O)[O-])n2C)cc1
53.4 ng/mL

----------
# protocolText: Multiple dosing study in dogs: systemic exposure (plasma) to fexinidazole and its metabolites
# Format: in vivo, dog
# reportedConditions: female, dog, plasma, po, 200 mg/kg/day, Female Dog, 200 mg/kg/day oral, D14, mean ± SD, n = 3; read-out: AUC0-t (last)
measurementLabel: AUC(0-t) (ng·h/mL)
Report as a plain number; the unit ng·h/mL is understood.

Give the measured AUC(0-t) for CSc1ccc(OCc2ncc([N+](=O)[O-])n2C)cc1
443

----------
# protocolText: Multiple dosing study in dogs: systemic exposure (plasma) to fexinidazole and its metabolites
# Format: in vivo, dog
# reportedConditions: male, dog, plasma, po, 50 mg/kg/day, Male Dog, 50 mg/kg/day oral, D1, mean ± SD, n = 3
measurementLabel: Tmax (min)
State just the number; it will be interpreted in min.

Assign Tmax to the following record: CSc1ccc(OCc2ncc([N+](=O)[O-])n2C)cc1
30

----------
# protocolText: Multiple dosing study in dogs: systemic exposure (plasma) to fexinidazole and its metabolites
# Assay type: in vivo, dog
# reportedConditions: female, dog, plasma, po, 50 mg/kg/day, Female Dog, 50 mg/kg/day oral, D28, mean ± SD, n = 3
measurementLabel: Tmax (h)
# unit: h | format: bare number

Answer with the recorded Tmax for the compound listed here: CSc1ccc(OCc2ncc([N+](=O)[O-])n2C)cc1
1

----------
# protocolText: Multiple dosing study in dogs: systemic exposure (plasma) to fexinidazole and its metabolites
# Format: in vivo, dog
# reportedConditions: male, dog, plasma, po, 200 mg/kg/day, Male Dog, 200 mg/kg/day oral, D28, mean ± SD, n = 3
measurementLabel: Cmax
Please don't drop the unit; write it after the number.

Quickly give me recorded Cmax for CSc1ccc(OCc2ncc([N+](=O)[O-])n2C)cc1
57.9 ng/mL
